Recorded values, source PubChem BioAssay AID1159580.

Catalogue of molecules with associated normalized growth
# EXPERIMENTAL PROTOCOL: chemical genetic growth profiling, strain panel (AID 1159580);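 note: tested at 20 µM; growth read once vehicle control cultures reached saturation at 30 °C; 1 = growth at the plate median or of vehicle wells; lower values mean less growth of the strain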
# CONDITIONS USED: S. cerevisiae deletion strains, growth OD, locus YPR111W, strain DBF20, stronger effect = lower value
About 2,000 (36%) of roughly 5,500 compounds were called active. Another 18% or so got no clear call; they are omitted. Some of the results follow.
MEASURED ATTRIBUTE: normalized growth

1) Cn1c(CSCCOc2ccccc2)nnc1SCc1ccc(Cl)cc1Cl
0.969 (inactive)
2) Fc1cccc(Cl)c1CSc1nncn1-c1ccc(OCc2ccccc2)cc1
0.986 (inactive)
3) CCOc1ccc(/C=C(\C)[N+](=O)[O-])cc1OC
0.978 (inactive)
4) O=C(Nc1ccc(C(F)(F)F)cc1)N1CCN(c2ccnc3cc(Cl)ccc23)CC1
0.979 (inactive)
